# credit: paper PMC12426922

percentage of the amount added at the apical side at t = 0: basolateral side by entry:
# Test system: Caco-2 cell layer
# assay comment: Transport of AGE mixture across Caco-2 cell layer (transwell, apical to basolateral)
# Type: in vitro ADME, Human
# test parameters: cytochalasin D pretreatment; mixture, each AGE 100 μmol/L; 2 h
Marks after values point to notes of the source that are not given here.
assay metric: percentage of the amount added at the apical side at t = 0: basolateral side

[
  {
    "molecule": "N[C@@H](CCCCn1cc[n+](CCCC[C@H](N)C(=O)O)c1)C(=O)O",
    "result": "0.8 ± 0.3 ^a %"
  },
  {
    "molecule": "Cc1c[n+](CCCC[C@H](N)C(=O)O)cn1CCCC[C@H](N)C(=O)O",
    "result": "0.8 ± 0.6 ^a %"
  },
  {
    "molecule": "CC1NC(NCCC[C@H](N)C(=O)O)=NC1=O (stereo partly shown) [MG-H1, methylglyoxal–hydroimidazolone]",
    "result": "1.2 ± 0.6 ^a %"
  },
  {
    "molecule": "N[C@@H](CCCCn1c(C=O)ccc1CO)C(=O)O",
    "result": "0.8 ± 0.5 ^a %"
  }
]

###

# Tested on: differentiated Caco-2 cells
# assay comment: WST-1 cytotoxicity assay, viability of differentiated Caco-2 cells after 2 h exposure
# Assay type: cell-based, Human
# test parameters: for the mixture: concentration of each AGE
assay metric: concentration that did not significantly affect cell viability

[
  {
    "molecule": "N[C@@H](CCCC[n+]1cccc2[nH]c(NCCC[C@H](N)C(=O)O)nc21)C(=O)O",
    "target desc": "differentiated Caco-2 cells",
    "result": "≤ 500 µM"
  },
  {
    "molecule": "Cc1c[n+](CCCC[C@H](N)C(=O)O)cn1CCCC[C@H](N)C(=O)O",
    "target desc": "differentiated Caco-2 cells",
    "result": "≤ 1500 µM"
  },
  {
    "molecule": "CC(NCCCC[C@H](N)C(=O)O)C(=O)O (stereo partly drawn)",
    "target desc": "differentiated Caco-2 cells",
    "result": "≤ 1500 µM"
  },
  {
    "molecule": "Cc1nc(NCCC[C@H](N)C(=O)O)nc(C)c1O",
    "target desc": "differentiated Caco-2 cells",
    "result": "≤ 500 µM"
  },
  {
    "molecule": "N[C@@H](CCCCNC(=O)CO)C(=O)O [GALA, glycolic acid–lysine–amide]",
    "target desc": "differentiated Caco-2 cells",
    "result": "≤ 1500 µM"
  },
  {
    "molecule": "CC1NC(NCCC[C@H](N)C(=O)O)=NC1=O (stereo partly drawn) [MG-H1, methylglyoxal–hydroimidazolone]",
    "target desc": "differentiated Caco-2 cells",
    "result": "≤ 750 µM"
  }
]

###

Papp at 120 min, 100 μmol/L by entry:
# System: PepT1
# assay comment: Transport of AGE mixture across Caco-2 cell layer (transwell, apical to basolateral)
# Type: in vitro ADME, Human
# test parameters: human, Caco-2, with Gly-Sar 10 mmol/L (apical), 10 mmol/L Gly-Sar apical (PepT1 inhibition); mixture, each AGE 100 μmol/L; data from 120 min

[
  {
    "molecule": "N[C@@H](CCCCNC(=O)CO)C(=O)O [GALA, glycolic acid–lysine–amide]",
    "Papp at 120 min, 100 μmol/L / ×10⁻⁶ cm/s": 0.321
  },
  {
    "molecule": "N[C@@H](CCCCNCC(=O)O)C(=O)O [CML, N-ε-(carboxymethyl)-lysine]",
    "Papp at 120 min, 100 μmol/L / ×10⁻⁶ cm/s": 0.207
  },
  {
    "molecule": "N[C@@H](CCCCn1c(C=O)ccc1CO)C(=O)O [pyrraline]",
    "Papp at 120 min, 100 μmol/L / ×10⁻⁶ cm/s": 0.08
  },
  {
    "molecule": "CC(NCCCC[C@H](N)C(=O)O)C(=O)O (stereo partly drawn) [CEL, N-ε-(carboxyethyl)-lysine]",
    "Papp at 120 min, 100 μmol/L / ×10⁻⁶ cm/s": 0.149
  },
  {
    "molecule": "Cc1nc(NCCC[C@H](N)C(=O)O)nc(C)c1O [argpyrimidine]",
    "Papp at 120 min, 100 μmol/L / ×10⁻⁶ cm/s": 0.141
  },
  {
    "molecule": "Cc1c[n+](CCCC[C@H](N)C(=O)O)cn1CCCC[C@H](N)C(=O)O [MOLD, methylglyoxal–lysine dimer]",
    "Papp at 120 min, 100 μmol/L / ×10⁻⁶ cm/s": 0.11
  },
  {
    "molecule": "N[C@@H](CCCC[n+]1cccc2[nH]c(NCCC[C@H](N)C(=O)O)nc21)C(=O)O [pentosidine]",
    "Papp at 120 min, 100 μmol/L / ×10⁻⁶ cm/s": 0.061
  },
  {
    "molecule": "CC1NC(NCCC[C@H](N)C(=O)O)=NC1=O (stereo partly drawn) [MG-H1, methylglyoxal–hydroimidazolone]",
    "Papp at 120 min, 100 μmol/L / ×10⁻⁶ cm/s": 0.168
  },
  {
    "molecule": "N[C@@H](CCCCn1cc[n+](CCCC[C@H](N)C(=O)O)c1)C(=O)O [GOLD, glyoxal-derived lysine dimer]",
    "Papp at 120 min, 100 μmol/L / ×10⁻⁶ cm/s": 0.1
  }
]

###

# Tested on: Caco-2 cell layer
# assay comment: Transport of AGE mixture across Caco-2 cell layer (transwell, apical to basolateral)
# Assay type: in vitro ADME, Human
# test parameters: 4 °C; mixture, each AGE 100 μmol/L; 2 h
Marks after values point to notes of the source that are not given here.
assay metric: percentage of the amount added at the apical side at t = 0: basolateral side

[
  {
    "compound": "N[C@@H](CCCCn1c(C=O)ccc1CO)C(=O)O",
    "result": "0.1 ± 0.1 ^b %"
  },
  {
    "compound": "N[C@@H](CCCCn1cc[n+](CCCC[C@H](N)C(=O)O)c1)C(=O)O",
    "result": "0.1 ± 0.1 ^b %"
  },
  {
    "compound": "N[C@@H](CCCC[n+]1cccc2[nH]c(NCCC[C@H](N)C(=O)O)nc21)C(=O)O",
    "result": "0.1 ± 0.1 ^b %"
  },
  {
    "compound": "CC1NC(NCCC[C@H](N)C(=O)O)=NC1=O (stereo partly drawn) [MG-H1, methylglyoxal–hydroimidazolone]",
    "result": "0.3 ± 0.1 ^b %"
  },
  {
    "compound": "CC(NCCCC[C@H](N)C(=O)O)C(=O)O (stereo partly drawn)",
    "result": "0.3 ± 0.1 ^a %"
  },
  {
    "compound": "N[C@@H](CCCCNCC(=O)O)C(=O)O",
    "result": "0.3 ± 0.1 ^b %"
  },
  {
    "compound": "Cc1c[n+](CCCC[C@H](N)C(=O)O)cn1CCCC[C@H](N)C(=O)O",
    "result": "0.1 ± 0.1 ^b %"
  },
  {
    "compound": "Cc1nc(NCCC[C@H](N)C(=O)O)nc(C)c1O",
    "result": "0.2 ± 0.1 ^b %"
  },
  {
    "compound": "N[C@@H](CCCCNC(=O)CO)C(=O)O [GALA, glycolic acid–lysine–amide]",
    "result": "0.2 ± 0.1 ^c %"
  }
]

###

# System: Caco-2 cell layer
# assay comment: Transport of AGE mixture across Caco-2 cell layer (transwell, apical to basolateral)
# Format: in vitro ADME, Human
# test parameters: cytochalasin D pretreatment; mixture, each AGE 100 μmol/L; 2 h
Marks after values point to notes of the source that are not given here.
assay metric: percentage of the amount added at the apical side at t = 0: apical side

[
  {
    "compound": "N[C@@H](CCCCNC(=O)CO)C(=O)O [GALA, glycolic acid–lysine–amide]",
    "target desc": "Caco-2 cell layer",
    "result": "87.4 ± 4.3 ^a %"
  },
  {
    "compound": "Cc1nc(NCCC[C@H](N)C(=O)O)nc(C)c1O [argpyrimidine]",
    "target desc": "Caco-2 cell layer",
    "result": "93.3 ± 5.2 ^a %"
  },
  {
    "compound": "CC1NC(NCCC[C@H](N)C(=O)O)=NC1=O (stereo partly drawn) [MG-H1, methylglyoxal–hydroimidazolone]",
    "target desc": "Caco-2 cell layer",
    "result": "93.0 ± 4.5 ^a %"
  },
  {
    "compound": "N[C@@H](CCCCn1c(C=O)ccc1CO)C(=O)O [pyrraline]",
    "target desc": "Caco-2 cell layer",
    "result": "89.4 ± 4.7 ^a %"
  },
  {
    "compound": "CC(NCCCC[C@H](N)C(=O)O)C(=O)O (stereo partly drawn) [CEL, N-ε-(carboxyethyl)-lysine]",
    "target desc": "Caco-2 cell layer",
    "result": "93.1 ± 4.7 ^a %"
  },
  {
    "compound": "Cc1c[n+](CCCC[C@H](N)C(=O)O)cn1CCCC[C@H](N)C(=O)O [MOLD, methylglyoxal–lysine dimer]",
    "target desc": "Caco-2 cell layer",
    "result": "90.8 ± 12.2 ^ab %"
  },
  {
    "compound": "N[C@@H](CCCCn1cc[n+](CCCC[C@H](N)C(=O)O)c1)C(=O)O [GOLD, glyoxal-derived lysine dimer]",
    "target desc": "Caco-2 cell layer",
    "result": "101.2 ± 9.4 ^a %"
  },
  {
    "compound": "N[C@@H](CCCCNCC(=O)O)C(=O)O [CML, N-ε-(carboxymethyl)-lysine]",
    "target desc": "Caco-2 cell layer",
    "result": "91.8 ± 5.7 ^a %"
  },
  {
    "compound": "N[C@@H](CCCC[n+]1cccc2[nH]c(NCCC[C@H](N)C(=O)O)nc21)C(=O)O [pentosidine]",
    "target desc": "Caco-2 cell layer",
    "result": "95.0 ± 14.2 ^a %"
  }
]
